- Experimental target: T1, human KLB on CHOK1-hKLB cells (human, UniProt Q86Z14 1-1044)
- T1 construct: whole, on cells; also called human KLB antigen; β-Klotho
- T1 sequence (looked up): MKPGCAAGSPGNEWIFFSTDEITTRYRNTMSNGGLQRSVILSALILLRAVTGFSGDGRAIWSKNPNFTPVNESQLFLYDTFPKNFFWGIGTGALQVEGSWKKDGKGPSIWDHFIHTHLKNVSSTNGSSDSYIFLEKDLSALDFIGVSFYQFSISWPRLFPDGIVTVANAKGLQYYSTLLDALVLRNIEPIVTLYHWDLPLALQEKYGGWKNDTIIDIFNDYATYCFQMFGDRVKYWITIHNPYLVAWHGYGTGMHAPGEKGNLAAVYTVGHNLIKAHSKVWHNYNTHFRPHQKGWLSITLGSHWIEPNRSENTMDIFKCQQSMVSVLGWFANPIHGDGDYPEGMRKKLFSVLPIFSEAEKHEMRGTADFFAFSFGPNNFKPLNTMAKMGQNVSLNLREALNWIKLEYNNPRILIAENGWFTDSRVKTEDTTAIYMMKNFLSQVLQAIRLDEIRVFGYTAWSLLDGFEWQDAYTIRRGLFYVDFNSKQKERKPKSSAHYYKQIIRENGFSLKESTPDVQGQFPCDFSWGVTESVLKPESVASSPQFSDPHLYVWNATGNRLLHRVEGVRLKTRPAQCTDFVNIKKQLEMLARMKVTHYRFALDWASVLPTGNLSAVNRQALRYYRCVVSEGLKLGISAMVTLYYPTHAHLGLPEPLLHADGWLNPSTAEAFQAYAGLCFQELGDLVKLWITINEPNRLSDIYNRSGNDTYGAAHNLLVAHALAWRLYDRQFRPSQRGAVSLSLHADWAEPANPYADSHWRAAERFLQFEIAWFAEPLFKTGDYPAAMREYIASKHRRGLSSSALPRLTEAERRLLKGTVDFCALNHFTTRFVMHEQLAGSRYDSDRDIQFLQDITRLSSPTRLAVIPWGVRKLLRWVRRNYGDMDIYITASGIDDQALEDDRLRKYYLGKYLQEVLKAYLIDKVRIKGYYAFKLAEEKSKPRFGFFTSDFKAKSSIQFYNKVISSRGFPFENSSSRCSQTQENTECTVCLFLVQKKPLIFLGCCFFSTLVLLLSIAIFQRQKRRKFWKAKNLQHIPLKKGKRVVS
- Protocol text: flow cytometry on CHOK1-hKLB cells
Property name: pEC50
Convention used: pEC50 is expressed as -log10 of the molar concentration.

Entry hAb99-5 (antibody, human IgG1, kappa, L234A L235A, V domains shown, humanized mAb-99: hAb99VH2 + hAb99VL1; human IgG1 (L234A, L235A) / kappa constant regions) VH: EVQLVQSGAEVKKPGASVKVSCKASGYTFTNYGINWVRQAPGQGLEWMGYIYIGNGDIEYNAKFKGRVTITSDTSASTAYMELSSLRSEDTAVYYCARGRGLGHFDVWGQGTTVTVSS VL: DIQMTQSPSSLSASVGDRVTITCRASKSISKFLAWYQQKPGKANKLLIYSGSTLQSGVPSRFSGSGSGTDFTLTISSLQPEDFATYYCQQHNEYPWTFGGGTKVEIKR — recorded pEC50 = 9.30

Entry hAb18-19 (antibody, human IgG1, kappa, L234A L235A, V domains shown, humanized mAb-18: hAb18VH1 + hAb18VL2-13; human IgG1 (L234A, L235A) / kappa constant regions) VH: EVQLVQSGAEVKKPGASVKVSCKASGYTFTDYAMHWVRQAPGQRLEWMGVISTYSGTTNYNQNFKGRVTITVDKSASTAYMELSSLRSEDTAVYYCARSGPLDYWGQGTTVTVSS VL: ENVLTQSPDFQSVTPKEKVTITCRASSNVSSSYLHWYQQKPDQSPKLWIYSTSNLASGVPSRFSGSGSGTDYTLTINSLEAEDAATYYCQQYSGYPLTFGQGTKLEIKR — recorded pEC50 = 8.39
